Kindly state Papp for each of the entries shown.
assay: passive permeability, PAMPA, ADME assay (AID 1508612); conditions: pH 7.4, 30.0 min, 50.0 µM

Data request: Reported Papp, compound O=C(c1cnc(N2CCCCC2)c2ccccc12)N1CCN(c2ccccn2)CC1 : ____
Data returned: > 1000 ×10⁻⁶ cm/s

Data request: Reported Papp, compound CCc1ccc(-n2nnc(-c3nsc(NC(=O)c4ccccc4Cl)n3)c2C)cc1 : ____
Data returned: 615 ×10⁻⁶ cm/s

Data request: Reported Papp, compound CC/C=C\C/C=C\C/C=C\C/C=C\C/C=C\C/C=C\CCC(=O)NCCO : ____
Data returned: 298 ×10⁻⁶ cm/s

Data request: Reported Papp, compound Cc1ccc(-c2c(CN3CCN(c4cccc(C(F)(F)F)c4)CC3)csc2C)cc1 : ____
Data returned: < 1 ×10⁻⁶ cm/s

Data request: Reported Papp, compound O=C(c1nc(-c2cccnc2)c2ccccn12)N1CCOCC1 : ____
Data returned: 206 ×10⁻⁶ cm/s

Data request: Reported Papp, compound Cc1cccc(-n2ncc3c2CCCC3NC(=O)c2c(F)ccc(F)c2F)c1C (stereo not given) : ____
Data returned: 916 ×10⁻⁶ cm/s

Data request: Reported Papp, compound O=S(=O)(Nc1nccs1)c1ccc(Nc2nc(-c3ccc(F)cc3)cs2)cc1 : ____
Data returned: 10.6 ×10⁻⁶ cm/s

Data request: Reported Papp, compound CC(C)CNc1ccnc(NCc2csc(-c3ccccc3)n2)n1 : ____
Data returned: > 1000 ×10⁻⁶ cm/s

Data request: Reported Papp, compound COc1ccc(Nc2cnc3ccc(-c4ccc(OC)c(OC)c4)nn23)cc1 : ____
Data returned: 396 ×10⁻⁶ cm/s

Data request: Reported Papp, compound NC(=O)C1CCN(c2nc(-c3ccc(N)cc3)cs2)CC1 : ____
Data returned: 87.1 ×10⁻⁶ cm/s

====

test: passive permeability, PAMPA, ADME assay (AID 1508612); settings: pH 7.4, 30.0 min, 50.0 µM
Decide using Papp: a value greater than or equal to 80 ×10⁻⁶ cm/s is t, a smaller one is f.

Data request: Threshold query (Papp >= 80 ×10⁻⁶ cm/s) on CCN1C(=O)c2ccccc2S(=O)c2ccc(C(=O)NCc3ccccc3)cc21 (centres undefined)
Data returned: t

Data request: Threshold query (Papp >= 80 ×10⁻⁶ cm/s) on Oc1ccc(CNc2cccc(F)c2)c2cccnc12
Data returned: f

Data request: Threshold query (Papp >= 80 ×10⁻⁶ cm/s) on CC(C)NC(=O)N1C[C@@H]2C[C@H](C1)c1ccc(-c3cccc(C(F)(F)F)c3)c(=O)n1C2
Data returned: t

Data request: Threshold query (Papp >= 80 ×10⁻⁶ cm/s) on COc1ccc(OC)c(Nc2c3c(nc4ccccc24)CCC3)c1
Data returned: t

Data request: Threshold query (Papp >= 80 ×10⁻⁶ cm/s) on Cc1ccc(C(=O)Nc2ccc3oc(-c4cccnc4)nc3c2)cc1[N+](=O)[O-]
Data returned: t

Data request: Threshold query (Papp >= 80 ×10⁻⁶ cm/s) on COc1ccc(O)c(CNc2ccc(S(=O)(=O)Nc3nccs3)cc2)c1
Data returned: f

Data request: Threshold query (Papp >= 80 ×10⁻⁶ cm/s) on COc1ccc2c(c1)CCc1c-2n[nH]c1C(=O)N1CCc2c(nc3cc(-c4ccccc4)[nH]n3c2=O)C1
Data returned: f

Data request: Threshold query (Papp >= 80 ×10⁻⁶ cm/s) on O=C1CCCCc2cc(O)c(O)cc21
Data returned: f
